# procedure details: Probe fluorescence ratio response to arachidonic acid relative to ADIFAB2
# Type: binding
# test conditions: arachidonic acid; response relative to ADIFAB2
DR/DR AA strictly less than 1 = TRUE. Otherwise FALSE.

Consider the following illustrative entries.
molecule	class assignment
62W, 72A (protein, listed as Rattus norvegicus, PEPTIDE (1)...(131) wild-type rat intestinal fatty acid binding protein) AFDGTWKVDRNENYEKFMEKMGINVVKRKLGAHDNLKLTITQEGNKFTVKESSNFRNIDVVWELGVDFAYSAADGTELTGTWTMEGNKLVGKFKRVDNGKELIAVREISGNELIQTYTYEGVEAKRIFKKE	FALSE
17S, 72A (protein, listed as Rattus norvegicus, PEPTIDE (1)...(131) wild-type rat intestinal fatty acid binding protein) AFDGTWKVDRNENYEKSMEKMGINVVKRKLGAHDNLKLTITQEGNKFTVKESSNFRNIDVVFELGVDFAYSAADGTELTGTWTMEGNKLVGKFKRVDNGKELIAVREISGNELIQTYTYEGVEAKRIFKKE	TRUE
106H2, 72A (protein, listed as Rattus norvegicus, PEPTIDE (1)...(131) wild-type rat intestinal fatty acid binding protein) AFDGTWKVDRNENYEKFMEKMGINVVKRKLGAHDNLKLTITQEGNKFTVKESSNFRNIDVVFELGVDFAYSAADGTELTGTWTMEGNKLVGKFKRVDNGKELIAVHEISGNELIQTYTYEGVEAKRIFKKE	TRUE
62N 106F 117A 72A (protein, listed as Rattus norvegicus, PEPTIDE (1)...(131) wild-type rat intestinal fatty acid binding protein) AFDGTWKVDRNENYEKFMEKMGINVVKRKLGAHDNLKLTITQEGNKFTVKESSNFRNIDVVNELGVDFAYSAADGTELTGTWTMEGNKLVGKFKRVDNGKELIAVFEISGNELIQTATYEGVEAKRIFKKE	FALSE
17A, 72A (protein, listed as Rattus norvegicus, PEPTIDE (1)...(131) wild-type rat intestinal fatty acid binding protein) AFDGTWKVDRNENYEKAMEKMGINVVKRKLGAHDNLKLTITQEGNKFTVKESSNFRNIDVVFELGVDFAYSAADGTELTGTWTMEGNKLVGKFKRVDNGKELIAVREISGNELIQTYTYEGVEAKRIFKKE	TRUE

In the following, a different molecule is considered.
Is DR/DR AA strictly under 1 for the entry 91C, 72A (protein, listed as Rattus norvegicus, PEPTIDE (1)...(131) wild-type rat intestinal fatty acid binding protein) AFDGTWKVDRNENYEKFMEKMGINVVKRKLGAHDNLKLTITQEGNKFTVKESSNFRNIDVVFELGVDFAYSAADGTELTGTWTMEGNKLVCKFKRVDNGKELIAVREISGNELIQTYTYEGVEAKRIFKKE ?
FALSE
